System: α-1,4-glucan lyase
Test: Inhibition studies of α-1,4-glucan lyase activity
Format: biochemical, Gracilariopsis lemaneiformis
Conditions: 50mM; maltose as substrate
Description: The reaction mixture for the assay of α-1,4-glucan lyase was composed of 240 μl 62.5 mM Mops-NaOH containing 6 mg soluble starch (pH 6.2), the enzyme preparation and distilled water to a final volume of 300 μl. The reaction was carried out at 30° C. for 10-30 min. Liberated 1,5-anhydrofructose was determined by monitoring the absorbance at 546 nm after the addition of 3,5-dinitrosalicylic acid reagent. […]
quantity.name: inhibition of the enzyme

compound.string | quantity.name | reported
[Cl-].[Cl-].[Mg+2] | inhibition of the enzyme | no inhibition
[Ca+2].[Cl-].[Cl-] | inhibition of the enzyme | no inhibition
[Cl][Mn][Cl] | inhibition of the enzyme | no inhibition
[Cl-].[K+] | inhibition of the enzyme | no inhibition

Cited source for all entries: patent US5695970A
